tested on: alternative splicing of a specific gene (GFP/RFP reporter); test: Compound screen with GFP/RFP alternative splicing reporter; type: cell-based; conditions: 50 ng/mL
Counter-ions that a name gives are not always drawn.
recorded_endpoint: Number of cells
# answer = number (no unit)

Notebook: pull reported Number of cells for alternative splicing of a specific gene (GFP/RFP reporter), entry c1ccc(-c2ccc(C(c3ccccc3)n3ccnc3)cc2)cc1 (racemic)
921

Notebook: pull reported Number of cells for alternative splicing of a specific gene (GFP/RFP reporter), entry CC(C)C(=O)c1c(C(C)C)nn2ccccc12 (racemic)
3018

Notebook: pull reported Number of cells for alternative splicing of a specific gene (GFP/RFP reporter), entry `COc1ccc(CCN2CCC(Nc3nc4ccccc4n3Cc3ccc(F)cc3)CC2)cc1`
38

Notebook: pull reported Number of cells for alternative splicing of a specific gene (GFP/RFP reporter), entry CN(C)CCOc1ccc(/C(=C(/CCCl)c2ccccc2)c2ccccc2)cc1 (racemic)
250

Notebook: pull reported Number of cells for alternative splicing of a specific gene (GFP/RFP reporter), entry `Cc1coc2c1C(=O)C(=O)c1c-2ccc2c1CCCC2(C)C`
2210

Notebook: pull reported Number of cells for alternative splicing of a specific gene (GFP/RFP reporter), entry N=c1ccn2c(n1)O[C@H]1[C@H](O)[C@@H](CO)O[C@H]12 (racemic) [Cyclocytidine HCl]
73

Notebook: pull reported Number of cells for alternative splicing of a specific gene (GFP/RFP reporter), entry CCN(CC)C(=S)SSC(=S)N(CC)CC (racemic)
31

Notebook: pull reported Number of cells for alternative splicing of a specific gene (GFP/RFP reporter), entry O=C(NC(Cc1cc(=O)[nH]c2ccccc12)C(=O)O)c1ccc(Cl)cc1 (racemic) [Rebamipide]
2922

Notebook: pull reported Number of cells for alternative splicing of a specific gene (GFP/RFP reporter), entry `N=C(N)c1ccc(OCCCCCOc2ccc(C(=N)N)cc2)cc1`
2694

Notebook: pull reported Number of cells for alternative splicing of a specific gene (GFP/RFP reporter), entry Clc1ccc(CO/N=C(\Cn2ccnc2)c2ccc(Cl)cc2Cl)c(Cl)c1 (racemic) [Oxiconazole nitrate]
2732

Notebook: pull reported Number of cells for alternative splicing of a specific gene (GFP/RFP reporter), entry CC/C(=C(/CC)c1ccc(O)cc1)c1ccc(O)cc1 (racemic)
542

Notebook: pull reported Number of cells for alternative splicing of a specific gene (GFP/RFP reporter), entry CCCCC(C)(O)C/C=C/[C@H]1[C@H](O)CC(=O)[C@@H]1CCCCCCC(=O)OC (mixture of isomers)
3052

Notebook: pull reported Number of cells for alternative splicing of a specific gene (GFP/RFP reporter), entry Nc1ncnc2c1ncn2[C@@H]1O[C@H](CO)[C@@H](O)[C@@H]1O (racemic)
1482

Notebook: pull reported Number of cells for alternative splicing of a specific gene (GFP/RFP reporter), entry Clc1ccc(COC(Cn2ccnc2)c2ccc(Cl)cc2Cl)c(Cl)c1 (racemic)
808

Notebook: pull reported Number of cells for alternative splicing of a specific gene (GFP/RFP reporter), entry COc1cc2nc(N3CCN(C(=O)C4CCCO4)CC3)nc(N)c2cc1OC (racemic) [Terazosin HCl]
3112

Notebook: pull reported Number of cells for alternative splicing of a specific gene (GFP/RFP reporter), entry CC(C)(C)NCC(O)c1ccccc1Cl (racemic)
3489

Notebook: pull reported Number of cells for alternative splicing of a specific gene (GFP/RFP reporter), entry CCN(CC)CCOc1ccc(C(=C(Cl)c2ccccc2)c2ccccc2)cc1 (racemic) [Clomiphene citrate]
95
